Molecular target: PRMT5/MEP50 (Homo sapiens (Human), UniProt O14744)
Sequence (O14744 other isoform, or with tags, fused parts or gaps): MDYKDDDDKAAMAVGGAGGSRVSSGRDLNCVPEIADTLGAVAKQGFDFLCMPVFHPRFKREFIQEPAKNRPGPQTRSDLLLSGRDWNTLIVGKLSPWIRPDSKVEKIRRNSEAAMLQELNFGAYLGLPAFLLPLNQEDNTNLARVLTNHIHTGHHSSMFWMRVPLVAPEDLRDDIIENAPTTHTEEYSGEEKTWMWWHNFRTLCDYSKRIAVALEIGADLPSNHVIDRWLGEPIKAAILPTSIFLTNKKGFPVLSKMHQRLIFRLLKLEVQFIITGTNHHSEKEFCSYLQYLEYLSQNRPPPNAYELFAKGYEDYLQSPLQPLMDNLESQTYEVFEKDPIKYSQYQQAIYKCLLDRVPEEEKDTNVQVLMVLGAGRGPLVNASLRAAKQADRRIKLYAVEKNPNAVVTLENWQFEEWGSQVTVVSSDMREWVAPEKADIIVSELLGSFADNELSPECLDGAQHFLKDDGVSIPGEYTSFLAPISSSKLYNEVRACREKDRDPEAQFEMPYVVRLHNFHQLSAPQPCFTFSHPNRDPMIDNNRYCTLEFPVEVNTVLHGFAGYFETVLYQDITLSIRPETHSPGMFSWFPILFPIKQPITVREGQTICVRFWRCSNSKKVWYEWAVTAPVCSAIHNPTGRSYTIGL
Sequence (Q9BQA1 other isoform, or with tags, fused parts or gaps partner): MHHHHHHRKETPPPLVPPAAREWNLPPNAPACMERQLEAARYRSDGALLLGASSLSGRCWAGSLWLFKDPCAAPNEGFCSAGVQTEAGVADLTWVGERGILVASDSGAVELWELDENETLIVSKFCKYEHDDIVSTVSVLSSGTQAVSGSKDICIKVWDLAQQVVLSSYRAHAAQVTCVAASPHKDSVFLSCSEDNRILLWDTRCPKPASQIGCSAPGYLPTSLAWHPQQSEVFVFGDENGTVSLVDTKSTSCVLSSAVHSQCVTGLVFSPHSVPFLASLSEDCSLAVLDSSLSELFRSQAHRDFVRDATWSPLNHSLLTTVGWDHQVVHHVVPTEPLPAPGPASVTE
Test: PRMT5 Biochemical Assay (PRMT5/MEP50 enzyme assay on peptide substrate, 3H-SAM Flashplate)
Consider the following compounds; for each one, report its IC50.

Answered cases to consult:
OC(COc1cccc(-c2ccc3ncn(C4CCNC4)c3c2)c1)CN1CCc2ccccc2C1 (centres unmarked) : < 100 nM
Cn1cc2ccc(-c3ccnc(NCC(O)CN4CCc5ccccc5C4)c3)cc2n1 (centres unmarked) : < 100 nM
CN(CC(O)CN1CCc2ccccc2C1)c1cccc(CNC2CCOCC2)c1 (centres unmarked) : < 100 nM
O[C@@H](COc1cccc(-c2cccc3cccnc23)c1)CN1CCc2ccccc2C1 : < 100 nM

Please give IC50, item by item, for the list that follows.
1. CC(=O)N1CCC(n2ccc3cnc(-c4ccnc(NCC(O)CN5CCc6ccccc6C5)c4)nc32)CC1 (centres unmarked)
2. Cn1cnc2ccc(-c3cccc(OCC(O)CN4CCc5ccccc5C4)c3)cc21 (centres unmarked)

Return:
< 100 nM
< 100 nM

Please give IC50, item by item, for the list that follows.
1. Cn1ccc2cnc(-c3cccc(OCC(O)CN4CCc5ccccc5C4)c3)nc21 (centres unmarked)
2. OC(CNc1cc(-c2ccc3ncn(C4CCNCC4)c3c2)ccn1)CN1CCc2ccccc2C1 (centres unmarked)

Return:
< 100 nM
< 100 nM

Please give IC50, item by item, for the list that follows.
1. OC(CNc1cc(-c2ccc3ncn(C4COC4)c3c2)ccn1)CN1CCc2ccccc2C1 (centres unmarked)
2. OC(CNc1cc(-c2ccc3ncn(C4CNC4)c3c2)ccn1)CN1CCc2ccccc2C1 (centres unmarked)
3. CN1CC(n2cnc3ccc(-c4cccc(OCC(O)CN5CCc6ccccc6C5)c4)cc32)C1 (centres unmarked)
4. O=C(Cn1ccc2cnc(-c3ccnc(NCC(O)CN4CCc5ccccc5C4)c3)nc21)N1CCOCC1 (centres unmarked)
5. Cn1cnc2ccc(-c3cccc(OCC(O)CN4CCc5ccccc5C4)c3)nc21 (centres unmarked)

Return:
["< 100 nM", "< 100 nM", "< 100 nM", "< 100 nM", "< 100 nM"]

Please give IC50, item by item, for the list that follows.
1. Cn1cnc2ccc(-c3cccc(OCC(O)CN4Cc5ccccc5C(F)(F)C4)c3)cc21 (centres unmarked)
2. Cn1cnc2ccc(-c3cccc(OCC(O)CN4CCc5ccccc5C4COc4ccccc4)c3)cc21 (centres unmarked)
3. CN(C)S(=O)(=O)c1cccc(-c2cccc(OCC(O)CN3CCc4ccccc4C3)c2)c1 (centres unmarked)
4. CN1CCC(OCC(O)CN2CCc3ccccc3C2)C1 (centres unmarked)

Return:
1. > 10000 nM
2. > 40000 nM
3. > 40000 nM
4. > 40000 nM

###

Target: PRMT5/MEP50 (Homo sapiens (Human))
Assay: PRMT5 Biochemical Assay (PRMT5/MEP50 enzyme assay on peptide substrate, 3H-SAM Flashplate)
Text: S-adenosylmethionine (SAM), S-adenosylhomocysteine (SAH), bicine, KCl, Tween20, dimethylsulfoxide (DMSO), bovine skin gelatin (BSG), and Tris(2-carboxyethyl)phosphine hydrochloride solution (TCEP) were purchased from Sigma-Aldrich at the highest level of purity possible. ^3H-SAM was purchase from American Radiolabeled Chemicals with a specific activity of 80 Ci/mmol. 384-well streptavidin Flashplates were purchased from PerkinElmer. […]
pIC50: −log10 of the molar value.
reported endpoint: pIC50

Answered cases to consult:
CCn1ccnc1COCC(O)CN1CCc2ccccc2C1 (stereo not drawn) : < 4.40
OC(COC1CCNCC1)CN1CCc2ccccc2C1 (stereo not drawn) : < 4.40
OC(COc1cccc(-c2ccc3cn[nH]c3c2)c1)CN1CCc2ccccc2C1 (stereo not drawn) : 6.00 to 7.00
COc1ccc(Cn2nccc2-c2ccc(OC[C@@H](O)CN3CCc4ccccc4C3)cc2)cc1 : < 4.40
O=C(Cn1ccc2cnc(-c3ccnc(NCC(O)CN4CCc5ccccc5C4)c3)nc21)N1CCCC1 (stereo not drawn) : > 7.00

Please give pIC50, item by item, for the list that follows.
1. Cn1cnc2ccc(-c3cccc(OC[C@H](O)CN4CCc5ccccc5C4)c3)cc21
2. O[C@H](COc1cccc(CNC2CCCC2)c1)CN1CCc2ccccc2C1
3. OC(CNc1cc(-c2ncc3ccn(C4CCNCC4)c3n2)ccn1)CN1CCc2ccccc2C1 (stereo not drawn)
4. CN1CCCCC1COCC(O)CN1CCc2ccccc2C1 (stereo not drawn)
5. OC(COc1cccc(-c2cccc3cccnc23)c1)CN1CCc2ccccc2C1 (stereo not drawn)
6. Cn1cncc1C(=O)Nc1cccc(OC[C@@H](O)CN2CCc3ccccc3C2)c1
7. OC(COc1cccc(-c2ccc3ncn(C4CCNCC4)c3c2)c1)CN1CCc2ccccc2C1 (stereo not drawn)
8. Cn1cc2ccc(-c3cccc(OCC(O)CN4CCc5ccccc5C4)c3)nc2n1 (stereo not drawn)

Return:
> 7.00
6.00 to 7.00
> 7.00
< 4.40
> 7.00
5.00 to 6.00
> 7.00
> 7.00

###

Biological target: PRMT5/MEP50 (Homo sapiens (Human), UniProt O14744)
Experiment: PRMT5 Biochemical Assay (PRMT5/MEP50 enzyme assay on peptide substrate, 3H-SAM Flashplate)
Consider the following compounds; for each one, report its IC50.

Please give IC50, item by item, for the list that follows.
1. COc1cc2c(cc1OC)CN(CC(O)COc1cccc(CNC3CCCC3)c1)CC2 (centres unmarked)
2. Cn1cnc2ccc(-c3cccc(OC[C@@H](O)CN4CCc5ccccc5C4)c3)cc21
3. CC(=O)N(CC(O)CN1CCc2ccccc2C1)c1cccc(-c2ccc3ncn(C)c3c2)c1 (centres unmarked)

Return:
> 40000 nM
101 to 1000 nM
< 100 nM

Please give IC50, item by item, for the list that follows.
1. OC(CNc1cc(-c2ncc3ccn(C4CNC4)c3n2)ccn1)CN1CCc2ccccc2C1 (centres unmarked)
2. OC(CNc1cc(-c2ccc3ncn(C4CCNC4)c3c2)ccn1)CN1CCc2ccccc2C1 (centres unmarked)

Return:
["< 100 nM", "< 100 nM"]

###

Target: PRMT5/MEP50 (Homo sapiens (Human), UniProt O14744)
Test: PRMT5 Biochemical Assay (PRMT5/MEP50 enzyme assay on peptide substrate, 3H-SAM Flashplate)
Consider the following molecules; for each one, report its IC50.

Answered cases to consult:
CC1Cc2ccccc2CN1CC(O)COc1cccc(CNC2CCCC2)c1 (stereo not shown) [Compound 51] : > 40000 nM
COc1ccc(Cn2ccc(-c3ccc(OC[C@@H](O)CN4CCc5ccccc5C4)cc3)n2)cc1 [Compound 42] : 10000 to 40000 nM
Cn1cnc2ccc(-c3cccc(NCC(O)CN4CCc5ccccc5C4)c3)cc21 (stereo not shown) [Compound 102] : < 100 nM

Please give IC50, item by item, for the list that follows.
1. OC(COC1CCNC1)CN1CCc2ccccc2C1 (stereo not shown) [Compound 306]
2. O[C@H](COc1cccc(-c2cccc3cccnc23)c1)CN1CCc2ccccc2C1 [Compound 258]
3. Cn1ccc2cnc(-c3ccnc(NCC(O)CN4CCc5ccccc5C4)c3)nc21 (stereo not shown) [Compound 239]
4. COc1ccc(Cn2nccc2-c2ccc(OC[C@H](O)CN3CCc4ccccc4C3)cc2)cc1 [Compound 37]

Return:
1: > 40000 nM; 2: 101 to 1000 nM; 3: < 100 nM; 4: 1000 to 10000 nM

###

Consider the following molecules; for each one, report its IC50.
Target: PRMT5/MEP50 (Homo sapiens (Human))
Experiment: PRMT5 Biochemical Assay (PRMT5/MEP50 enzyme assay on peptide substrate, 3H-SAM Flashplate)

Answered cases to consult:
OC(COc1cccc(-c2ncc3ccn(C4CCNCC4)c3n2)c1)CN1CCc2ccccc2C1 (stereo not drawn) : < 0.1 µM
Cn1cnc2ccc(-c3cccc(OCC(O)CN4CCc5ccccc5C4Cc4ccccc4)c3)cc21 (stereo not drawn) : > 40 µM
CN1CCC(OCC(O)CN2CCc3ccccc3C2)CC1 (stereo not drawn) : > 40 µM
Cn1cncc1C(=O)Nc1cccc(OC[C@H](O)CN2CCc3ccccc3C2)c1 : 0.101 to 1 µM
COc1cccc2c1CCN(CC(O)COc1cccc(CNC3CCCC3)c1)C2 (stereo not drawn) : > 40 µM
Cn1cnc2ccc(-c3cccc(OCC(O)CN4CCc5ccccc5C4CC(N)=O)c3)cc21 (stereo not drawn) : > 40 µM
OC(COc1cccc(-c2cccc3[nH]cnc23)c1)CN1CCc2ccccc2C1 (stereo not drawn) : < 0.1 µM
CC1CN(CC(O)COc2cccc(CNC3CCCC3)c2)Cc2ccccc21 (stereo not drawn) : > 40 µM

Now let's try a different one.
Enquiry: # get_value(readout='IC50', item= OC(COc1ccc(C2CCCNC2)cc1)CN1CCc2ccccc2C1 (stereo not drawn) )
Return: < 0.1 µM

###

Test system: Z-138 cell line
Assay: Z-138 Proliferation Assay (Cell-Titer Glo, 5 days)
Type: cell-based
Details: Z-138 cells
pEC50: −log10 of the molar value.
reported endpoint: pEC50

Enquiry: # get_value(readout='pEC50', item= OC(COc1cccc(-c2ccc3cn[nH]c3c2)c1)CN1CCc2ccccc2C1 (stereo not shown) )
Return: 4.40 to 5.00
